Reported EC50 (ng/ml), inhibition of proliferation of BT474 cells is given for each of the following binders.
- studySystem: T1, human Nectin-4 (human, UniProt Q96NY8 32-510)
- T1 sequence (looked up): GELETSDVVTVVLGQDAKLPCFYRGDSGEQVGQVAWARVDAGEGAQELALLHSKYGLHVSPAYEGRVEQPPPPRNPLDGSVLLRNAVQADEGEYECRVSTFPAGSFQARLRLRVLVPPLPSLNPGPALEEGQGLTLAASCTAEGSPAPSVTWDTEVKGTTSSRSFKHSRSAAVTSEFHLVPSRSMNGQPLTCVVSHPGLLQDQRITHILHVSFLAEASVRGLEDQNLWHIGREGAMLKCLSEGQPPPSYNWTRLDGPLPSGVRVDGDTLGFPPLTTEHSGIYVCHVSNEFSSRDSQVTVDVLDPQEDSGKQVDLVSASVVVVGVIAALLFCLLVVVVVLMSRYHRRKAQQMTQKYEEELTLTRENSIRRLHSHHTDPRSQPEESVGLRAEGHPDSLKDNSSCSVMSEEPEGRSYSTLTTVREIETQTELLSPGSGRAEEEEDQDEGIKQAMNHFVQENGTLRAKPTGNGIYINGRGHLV
- protocolDescription: cell-based or functional assay
Field format: number, assumed ng/mL, no unit text.

>  <binder>
mIgG 42D20-E (antibody, V domains shown) VH: QVQLKESGPGLVAPSQSLSISCTVSGFSLIDYGVSWIRQPPGKGLEWLGVIWGDGKIYYNSVLKSRLSISKDNSKSQVFLKMNSLQTDDTAMYYCAKQGGLLFYAMDYWGQGTSVTVSS VL: DIVMTQSPSSLAMSVGQRVTMNCKSSQSLLNSYSQKNYLAWYQQKPGQSPKLLIYFASTRESGVPDRFIGSGSETDFTLTISSVQAEDLADYFCQQHYNTPFTFGSGTKLEIK

>  <measuredResult>
4.64

$$$$
>  <binder>
mIgG 5M21-E (antibody, V domains shown) VH: QVQLQQSGPELVKPGASVRITCKASGYTFTTYYIHWVKQRPGQGLEWIGWIYPGNVNTKYNEKFKGKATLTADKSSSTAYMQLSSLTSEDSAVYFCARGLYYFDYWGQGTTLTVSS VL: SIVMTQTPKFLLVSAGDRLTITCKASQSVSNDVAWYQQKPGQSPKLLIYYASNRYTGVPDRFTGSGYGTDFTFTISTVQAEDLAVYFCQQDYSSPYTFGGGTKLEIK

>  <measuredResult>
3.21

$$$$
>  <binder>
5M21 hz10-E (antibody, human IgG1, kappa, V domains shown, vcMMAE conjugated to the TECP-reduced antibody; residues not stated; DAR 4.0±1) VH: QVQLVQSGAEVKKPGASVKVSCKASGYTFTTYYIHWVRQAPGQRLEWMGWIYPGNVNTKYNEKFKGRVTITADKSASTAYMELSSLRSEDTAVYYCARGLYYFDYWGQGTLVTVSS VL: DIQMTQSPSSLSASVGDRVTITCKASQSVSNDVAWYQQKPGKVPKLLIYYASNRYTGVPSRFSGSGSGTDFTLTISSLQPEDVATYYCQQDYSSPYTFGGGTKVEIKR

>  <measuredResult>
21.1

$$$$

Now look at this entry.
Return reported EC50 (ng/ml), inhibition of proliferation of BT474 cells. Input binder: 42D20 hz10-E (antibody, V domains shown, vcMMAE conjugated to the TECP-reduced antibody; residues not stated; DAR 4.0±1) VH: QVQLQESGPGLVKPSETLSLTCTVSGFSLIDYGVSWIRQPPGKGLEWIGVIWGDGKIYYNSVLKSRVTISKDNSKSQVSLKLSSVTAADTAVYYCAKQGGLLFYAMDYWGQGTLVTVSS VL: DIVMTQSPDSLAVSLGERATINCKSSQSLLNSYSQKNYLAWYQQKPGQPPKLLIYFASTRESGVPDRFSGSGSGTDFTLTISSLQAEDVAVYYCQQHYNTPFTFGAGTKLELKR 2.61
